Where do these numbers come from? They come from patent US20240360228A1.

Each entry below carries its recorded % Blocking.
target_under_test: T1, human CCR8 (human, UniProt P51685 1-355)
T1 construct: Native CCR8 on human PBMC (CCR8+ CD3+ or CCR8+ CD4+ lymphocytes); also called chemokine (C-C motif) receptor 8
assay_notes: flow blocking, PBMC CCR8+CD4+; competitor PE-433H

binder | % Blocking
AB11 (antibody, V domains shown, Hybridoma monoclonal; also called antibody 11; clone 11) VH: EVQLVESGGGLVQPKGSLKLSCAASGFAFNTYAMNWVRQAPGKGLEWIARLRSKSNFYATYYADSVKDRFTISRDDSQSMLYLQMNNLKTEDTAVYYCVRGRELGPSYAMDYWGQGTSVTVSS VL: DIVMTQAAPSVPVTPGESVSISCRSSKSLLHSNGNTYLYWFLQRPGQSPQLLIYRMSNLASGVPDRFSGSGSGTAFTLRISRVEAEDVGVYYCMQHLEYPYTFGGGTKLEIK | 38.6%
AB1 (antibody, V domains shown, Hybridoma monoclonal (mouse or rat); Same VH/VL entries as AB2; also called antibody 1; clone 1) VH: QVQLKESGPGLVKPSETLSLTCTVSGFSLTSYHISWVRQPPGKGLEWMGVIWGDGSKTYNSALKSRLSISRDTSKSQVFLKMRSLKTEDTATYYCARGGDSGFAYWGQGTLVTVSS VL: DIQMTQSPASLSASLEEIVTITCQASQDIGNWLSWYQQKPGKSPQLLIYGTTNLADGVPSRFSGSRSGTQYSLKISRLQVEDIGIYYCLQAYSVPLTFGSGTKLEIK | 14.8%
AB2 (antibody, V domains shown, Hybridoma monoclonal; Same VH/VL entries as AB1; also called antibody 2; clone 2) VH: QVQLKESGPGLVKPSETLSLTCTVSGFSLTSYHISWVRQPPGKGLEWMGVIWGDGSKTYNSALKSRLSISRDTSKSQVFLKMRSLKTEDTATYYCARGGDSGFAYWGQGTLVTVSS VL: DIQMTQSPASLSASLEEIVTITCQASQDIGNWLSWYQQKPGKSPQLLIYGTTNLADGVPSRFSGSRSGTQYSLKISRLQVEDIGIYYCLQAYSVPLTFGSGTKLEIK | 2.84%
